These data points were gathered from patent US9376387B2.

test system: EqBuChE (Equus caballus, UniProt P81908)
Sequence (P81908 whole entry): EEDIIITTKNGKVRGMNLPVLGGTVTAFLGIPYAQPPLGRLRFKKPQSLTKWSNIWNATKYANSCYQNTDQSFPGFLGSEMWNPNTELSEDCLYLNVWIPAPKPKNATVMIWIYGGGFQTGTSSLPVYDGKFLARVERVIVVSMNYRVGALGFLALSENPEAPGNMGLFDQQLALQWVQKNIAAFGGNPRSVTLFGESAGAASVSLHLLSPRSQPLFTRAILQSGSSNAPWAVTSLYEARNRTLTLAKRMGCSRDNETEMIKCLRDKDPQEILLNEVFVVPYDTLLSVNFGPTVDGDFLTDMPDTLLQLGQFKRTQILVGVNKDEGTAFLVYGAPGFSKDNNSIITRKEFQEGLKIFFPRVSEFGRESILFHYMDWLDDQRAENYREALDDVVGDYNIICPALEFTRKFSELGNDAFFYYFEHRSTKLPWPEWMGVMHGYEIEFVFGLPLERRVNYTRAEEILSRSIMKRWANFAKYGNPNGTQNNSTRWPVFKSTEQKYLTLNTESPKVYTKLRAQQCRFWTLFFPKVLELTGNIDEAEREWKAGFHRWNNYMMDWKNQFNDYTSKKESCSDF
procedure details: biochemical
setup conditions: EqBuChE IC50
pIC50: −log10 of the molar value.

compound	pIC50
COc1ccc2c(c1)CCC(Cc1cc[n+](Cc3ccccc3[N+](=O)[O-])cc1C(C)=O)C2=O (stereo not drawn) [Compound 125]	6.23
COc1ccc2c(c1)CCC(Cc1cc[n+](Cc3ccccc3)cc1C(C)=O)C2=O (stereo not drawn) [Compound 82]	6.43
COc1ccc2c(c1)CCC(CC1C=CN(Cc3ccccc3C)C=C1C(C)=O)C2=O (single isomer, unassigned) [Compound 160-C]	5.33
COc1ccc(C(=O)N(CCCC2C=CN(Cc3ccccc3)C=C2C(C)=O)c2ccccc2)cc1OC (stereo not drawn) [Compound 36]	5.34
COc1ccc2c(c1)CC(Cc1cc[n+](Cc3ccccc3C)cc1C(C)=O)C2=O (stereo not drawn) [Compound 138]	5.52
COc1cc2c(cc1OC)C(=O)C(Cc1cc[n+](Cc3ccccc3Cl)cc1Br)C2 (stereo not drawn) [Compound 140]	6.01
COc1ccc2c(c1)CCC(Cc1cc[n+](Cc3ccc(C)cc3)cc1C(C)=O)C2=O (stereo not drawn) [Compound 130]	5.38
COc1cc2c(cc1OC)C(=O)C(CC1C=CN(Cc3cccc(Cl)c3)C=C1C(C)=O)C2 (stereo not drawn) [Compound 77]	4.87
COc1ccc(C(=O)N(CCC2C=CN(Cc3ccccc3)C=C2C(C)=O)c2ccccc2)cc1OC (stereo not drawn) [Compound 32]	5.21
COc1ccc2c(c1)CCC(CC1C=CN(Cc3cccc(C)c3)C=C1C(C)=O)C2=O (stereo not drawn) [Compound 61]	5.40
COc1ccc2c(c1)CCC(Cc1cc[n+](Cc3cccc(Cl)c3)cc1C(C)=O)C2=O (stereo not drawn) [Compound 122]	6.30
COc1ccc2c(c1)CCC(Cc1cc[n+](Cc3ccccc3C)cc1C(C)=O)C2=O (stereo not drawn) [Compound 121]	6.36
CC(=O)C1=CN(Cc2ccccc2C)C=CC1CC1Cc2cc3c(cc2C1=O)OCO3 (stereo not drawn) [Compound 165]	5.34
COc1ccc2c(c1)CCC(CC1C=CN(Cc3cccc(F)c3)C=C1C(C)=O)C2=O (stereo not drawn) [Compound 156]	5.36
COc1ccc2c(c1)CCC(Cc1cc[n+](Cc3ccccc3)cc1C(C)=O)C2=O (stereo not drawn) [Compound 119]	6.39
COc1cc2c(cc1OC)C(=O)C(CC1C=CN(Cc3ccccc3)C=C1C(C)=O)CC2 (stereo not drawn) [Compound 162]	5.40
COc1ccc2c(c1)CCC(Cc1cc[n+](Cc3cccc(C)c3)cc1Br)C2=O (stereo not drawn) [Compound 118]	6.18
CC(=O)C1=CN(Cc2ccccc2C)C=CC1CC1Cc2cc(C)c(C)cc2C1=O (stereo not drawn) [Compound 166]	5.90
